Tested on: OV90
RUN_DESCRIPTION: Primary qHTS to identify gynecologic anti-cancer compounds using libraries of approved drugs and bioactive compounds (AID 1345084); further: nearly all actives have a fitted effect of over 55% in size
RUN_PARAMETERS: Gynecologic cancer cell panel viability, ATPlite luminescence, 48 h; series mostly up to 57.5 µM
Inconclusive results are not listed. Active and inactive are the calls of the source. The call rests on the fitted dose curve; in most records, active means well fitted cell-killing curve with a large enough effect; inconclusive means small, poorly fitted or top-dose-only effect, or effect the other way; inactive means flat fitted curve, though single readings scatter.
Your response should consist of one outcome taken from class 1 (active), class 0 (inactive)

1. OC(c1ccccc1)(c1ccccc1)C1CCNCC1 | class 0
2. O=C1NCN(c2ccccc2)C12CCN(CCCOc1ccc(F)cc1)CC2 | class 0
3. C[C@H]1CNCCc2ccc(Cl)cc21 | class 0
4. c1cc2c(c(N3CCNCC3)c1)OCCO2 | class 0
5. CCCC[N+]1(C)[C@@H]2CC(OC(=O)[C@H](CO)c3ccccc3)C[C@H]1[C@@H]1O[C@@H]12 (some centres undefined) | class 0
6. CCOP(=S)(OCC)O/N=C(\C#N)c1ccccc1 | class 0

query: For COc1ccc(C(=O)N2CCCC2=O)cc1 , which call appears in the assay record?
result: class 0

query: For CCO[C@H]1O[C@@H]2OC3(C)CC[C@H]4[C@H](C)CC[C@@H]([C@H]1C)[C@@]24OO3 , which call appears in the assay record?
result: class 0

query: For COCC(=O)N(c1c(C)cccc1C)C(C)C(=O)OC (centres undefined) , which call appears in the assay record?
result: class 0

query: For C[C@]12CC[C@H]3[C@@H](CCC4=CC(=O)CC[C@@H]43)[C@@H]1CC[C@@H]2O , which call appears in the assay record?
result: class 0

query: For COc1ccc(OC)c(CC(C)N)c1 (centres undefined) , which call appears in the assay record?
result: class 0

query: For CCOC(=O)C1(c2ccccc2)CCN(CCc2ccc(N)cc2)CC1 , which call appears in the assay record?
result: class 0

query: For NC(=O)OCCCc1ccccc1 , which call appears in the assay record?
result: class 0

query: For O=C(O)CCCCCCNC1c2ccccc2CCc2ccccc21 , which call appears in the assay record?
result: class 0

query: For CN1C(=O)CN=C(c2ccccc2)c2cc(Cl)ccc21 , which call appears in the assay record?
result: class 0

query: For O=C(CBr)Nc1ccc(Cl)cc1C(=O)c1ccccc1F , which call appears in the assay record?
result: class 0

query: For ClCCCN1CCN(c2cccc(Cl)c2)CC1 , which call appears in the assay record?
result: class 0

query: For C[C@@H]1CN(C2CCC(C#N)(c3ccc(F)cc3)CC2)CC[C@]1(C(=O)O)c1ccccc1 (some centres undefined) , which call appears in the assay record?
result: class 0

query: For CN(C)C(=O)Oc1cc(OC(=O)N(C)C)cc(C(O)CNC(C)(C)C)c1 (centres undefined) , which call appears in the assay record?
result: class 0

query: For CC(C)C(Br)C(=O)NC(N)=O (centres undefined) , which call appears in the assay record?
result: class 0

query: For CCCCC1C(=O)NC(=O)N(C2CCCCC2)C1=O (centres undefined) , which call appears in the assay record?
result: class 0

query: For ClCc1cccc(Cl)c1 , which call appears in the assay record?
result: class 0

query: For O=C(CCCN1CCC(n2c(=O)[nH]c3ccccc32)CC1)c1ccc(F)cc1 , which call appears in the assay record?
result: class 0

query: For CC(Cc1ccccc1)NCCCCl (centres undefined) , which call appears in the assay record?
result: class 0

query: For C[C@]12Cc3nonc3C[C@@H]1CC[C@@H]1[C@@H]2CC[C@@]2(C)[C@H]1CC[C@]2(C)O , which call appears in the assay record?
result: class 0

query: For CN1C(=O)CN=C(c2ccccc2)c2cc([N+](=O)[O-])ccc21 , which call appears in the assay record?
result: class 0

query: For CCC1(c2cccc(O)c2)CCCCN(C)C1 (centres undefined) , which call appears in the assay record?
result: class 0
